Reported MIC values for a set of compounds
System: Klebsiella pneumonia ATCC43816

Solved cases (3 shown):
Compound: CC(C)(N)[C@H](NC(=O)c1ccc2cc(C#CC3C[C@@H]3CO)ccc2c1)C(=O)NO (stereo partly shown)
MIC: 8 to 16 µg/mL

Compound: CSC(C)(C)[C@H](NC(=O)c1ccc(C#CC#C[C@H]2C[C@@H]2CO)cc1)C(=O)NO (stereo in doubt)
MIC: ≤ 1 µg/mL

Compound: CC(C)(N)[C@H](NC(=O)c1cc2ccc(C#CC3C[C@H]3CO)cc2s1)C(=O)NO (stereo partly shown)
MIC: 8 to 16 µg/mL

Alright, here's another compound for you.
Query :: Given the compound CC(C)([C@H](NC(=O)c1ccc(C#CC#C[C@H]2C[C@@H]2CO)cc1)C(=O)NO)S(C)(=O)=O (stereo in doubt) , write its reported MIC.
Result :: ≤ 1 µg/mL

====

Collected MIC values appear next to each entry.
Test system: Klebsiella pneumonia ATCC43816

Example entries begin here.
Compound: C[S+]([O-])C(C)(C)[C@H](NC(=O)c1ccc(C#CC#C[C@H]2C[C@@H]2CO)cc1)C(=O)NO (stereo in doubt)
Measured Parameter: MIC
Experimental Value: 8 to 16 µg/mL
//
Compound: O=C(NO)c1cc(-c2ccc(C#CC#C[C@@H]3C[C@H]3CO)cc2)ccn1 (relative stereo)
Measured Parameter: MIC
Experimental Value: 8 to 16 µg/mL
//
Compound: CNC(=O)C(NC(=O)c1ccc(C#CC#C[C@@H]2C[C@H]2CO)cc1)C(=O)NO (some centres unmarked)
Measured Parameter: MIC
Experimental Value: ≤ 1 µg/mL
//
Compound: CC(CCc1ccc(C#CC#C[C@H]2C[C@@H]2CO)cc1)(C(=O)NO)S(C)(=O)=O (relative stereo)
Measured Parameter: MIC
Experimental Value: 1 to 8 µg/mL

Okay, now this compound:
Query :: Name the recorded MIC of the compound listed here: O=C(NO)c1cc(-c2ccc(C#CC#C[C@@H]3C[C@H]3CO)cc2)nc2ccncc12 (relative stereo)
Result :: ≤ 1 µg/mL
